Where do the numbers come from? From ChEMBL document CHEMBL1201862.

# Method Description: Luminescence Cell-Based Dose Retest to Confirm Inhibitors of Cancer Stem Cells. [Related pubchem assays (depositor defined):AID2717, AID2721]
# Format: functional
# Reported Conditions: Homo sapiens
The source made the active and inactive calls.
In this section we review reported AC50 values for a set of molecules.

Example entries begin here.
COc1cc(OC)cc(-c2sc3ccc(OC)cc3c2-c2ccc(O)cc2)c1 = 2460 nM (active)
CN(c1ccccc1)S(=O)(=O)c1ccc(-c2ccccc2)cc1 = 2660 nM (active)
CCCCCCCCOC(=O)c1c(CSC(=N)N)n(C)c2cc(Br)c(OC(C)=O)cc12 = 2700 nM (active)
Cc1cc(C(=O)NNc2ccc(F)cc2)no1 = 2050 nM (active)
O=C1CC(Nc2ccccc2)=NN1c1ccccc1 = 3960 nM (active)

Now, please, on to the next molecule.
Prompt: Look up AC50 for this molecule: Cc1cccc(N2CCN(C(S)=Nc3ccc4nc(N5CCN(C)CC5)cc(C)c4c3)CC2C)c1 (stereo unspecified)
Completion: 7580 nM (active)

---

# Measured On: Alkaline phosphatase, placental type (Homo sapiens, UniProt P05187)
# Sequence (P05187 whole entry): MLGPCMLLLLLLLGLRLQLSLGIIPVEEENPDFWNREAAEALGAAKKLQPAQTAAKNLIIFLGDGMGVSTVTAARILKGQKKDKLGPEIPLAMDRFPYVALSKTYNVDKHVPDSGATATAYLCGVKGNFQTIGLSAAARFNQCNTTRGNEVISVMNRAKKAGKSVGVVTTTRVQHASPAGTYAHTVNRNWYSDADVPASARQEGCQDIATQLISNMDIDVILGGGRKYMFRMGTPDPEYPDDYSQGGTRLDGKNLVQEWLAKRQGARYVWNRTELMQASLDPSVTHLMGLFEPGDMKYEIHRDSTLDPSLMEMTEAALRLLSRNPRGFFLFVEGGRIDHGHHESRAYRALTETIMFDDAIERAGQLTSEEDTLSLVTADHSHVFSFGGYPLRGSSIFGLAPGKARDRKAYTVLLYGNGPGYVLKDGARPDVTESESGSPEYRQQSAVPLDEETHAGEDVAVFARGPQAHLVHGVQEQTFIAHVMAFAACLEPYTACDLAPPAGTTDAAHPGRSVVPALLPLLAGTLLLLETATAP
# Method Description: human placental alkaline phosphatase inhibition – biochemical, luminescence, confirmation (AID 1512)
# Assay type: functional
Active and inactive are the calls of the source.
Respond only with the outcome that fits, drawn from active, inactive

Previously resolved entries follow.
Cc1cc(C(=O)NCCc2ccc(O)c(O)c2)c(C)o1 = inactive
CCCCN1C(=O)/C(=N\Nc2ccccc2OC)c2ccccc21 = active
O=C(c1cc(-c2cc(F)c(Cl)cc2Cl)n[nH]1)N1CCOCC1 = inactive

Read the next record carefully.
Prompt: Each compound tested received a call. Report the one for `CCc1ccc2nc(Nc3nc(COC)cc(=O)[nH]3)nc(C)c2c1` .
Completion: inactive

---

Hi! I'm sharing some IC50 results obtained with UniProt:Q14289.
Sequence (Q14289 whole entry): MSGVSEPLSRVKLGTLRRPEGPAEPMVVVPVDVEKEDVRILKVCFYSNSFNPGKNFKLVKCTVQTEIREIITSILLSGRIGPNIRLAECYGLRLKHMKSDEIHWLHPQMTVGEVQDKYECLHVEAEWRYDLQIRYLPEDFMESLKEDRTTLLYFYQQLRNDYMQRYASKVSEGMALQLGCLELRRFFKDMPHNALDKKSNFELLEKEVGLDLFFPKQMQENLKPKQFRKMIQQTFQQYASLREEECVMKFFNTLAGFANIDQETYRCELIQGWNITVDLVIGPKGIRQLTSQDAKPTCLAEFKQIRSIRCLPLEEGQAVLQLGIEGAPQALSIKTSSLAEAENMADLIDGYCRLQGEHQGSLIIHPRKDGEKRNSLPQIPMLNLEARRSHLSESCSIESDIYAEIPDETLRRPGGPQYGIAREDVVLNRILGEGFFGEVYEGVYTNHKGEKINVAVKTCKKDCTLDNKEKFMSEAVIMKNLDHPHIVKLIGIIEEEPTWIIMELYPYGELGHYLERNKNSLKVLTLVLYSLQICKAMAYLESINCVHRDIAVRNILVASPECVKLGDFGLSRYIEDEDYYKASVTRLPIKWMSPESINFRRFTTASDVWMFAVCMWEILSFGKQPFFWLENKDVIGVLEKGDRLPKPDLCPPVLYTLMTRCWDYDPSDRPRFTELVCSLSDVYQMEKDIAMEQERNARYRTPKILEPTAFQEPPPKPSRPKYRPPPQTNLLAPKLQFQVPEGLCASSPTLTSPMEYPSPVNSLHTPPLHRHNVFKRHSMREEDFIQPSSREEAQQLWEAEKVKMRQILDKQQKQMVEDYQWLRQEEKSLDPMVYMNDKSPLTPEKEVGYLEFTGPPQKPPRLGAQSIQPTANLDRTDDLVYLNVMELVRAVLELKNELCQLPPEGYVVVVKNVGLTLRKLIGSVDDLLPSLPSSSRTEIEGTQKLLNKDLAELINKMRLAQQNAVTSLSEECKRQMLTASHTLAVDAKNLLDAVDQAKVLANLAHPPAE
The source made the active and inactive calls.

A selection of reference data follows.
Cc1nnc(NC(=O)CSc2nc(C(C)C)nc3ccccc23)s1 = > 69.5 µM (not active)
COc1cc(/N=C/c2c(O)[nH]c3ccccc23)cc(OC)c1OC = 3.15 µM (active)
CN1C(=O)c2cccc3c(S(=O)(=O)NCc4ccco4)ccc1c23 = > 69.5 µM (not active)

Now consider the entry below.
Prompt: Any idea what IC50 was measured for `Cc1cc(C)cc(OCC(=O)Nc2ccc(N3CCCC3)cc2)c1` ?
Completion: 7.74 µM (active)

---

# Method Description: NIH-3T3 fibroblast cytotoxicity, dose response, cytotoxicity control, cell-based, fluorescence, Alamar Blue, secondary assay (AID 2327);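 also: NIH-3T3 mouse fibroblasts cultured with fluconazole at 8 µg/mL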
# Format: functional
The source made the active and inactive calls.
The reply should be one of these categories: active, inactive

Here are 3 compounds together with their reported answers.
Cc1c(OCC(=O)NCC(O)c2ccccc2)ccc2c(-c3ccccc3)cc(=O)oc12 (centres undefined) = active
COc1ccc(/C=C2\N=C(SC)NC2=O)cc1 = inactive
O=C(Cc1ccccc1)N/N=C/c1cc(Br)cc(Cl)c1O = inactive

From here, focus on the item given below.
Prompt: Which result was noted for this compound in the test: Oc1c(C(Nc2nccs2)c2ccc(C(F)(F)F)cc2)ccc2cccnc12 (centres undefined)
Completion: active

---

# Measured On: Ubiquitin-conjugating enzyme E2 N (Homo sapiens)
# Sequence (P61088 whole entry): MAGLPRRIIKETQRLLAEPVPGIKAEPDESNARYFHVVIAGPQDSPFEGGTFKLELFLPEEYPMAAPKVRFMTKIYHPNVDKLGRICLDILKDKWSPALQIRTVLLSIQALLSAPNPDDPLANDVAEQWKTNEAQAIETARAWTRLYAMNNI
# Type: functional
Activity calls are given as the source filed them.
# valid calls are YES (active), NO (inactive); nothing else

Example results:
NCCCn1c(C(=O)c2cc(Cl)c(N)c(Cl)c2)c2ccc(C(F)(F)F)cc2[n+]1[O-] = YES
CN(C)CCCN(C(=O)c1ccc2c(c1)CCCC2)c1nc2ccc(Cl)cc2s1 = NO
Cc1c(C)n(Cc2ccccc2)c2ncnc(N)c12 = NO
Cc1cc(C)cc(OCC(=O)NNC(=O)c2ccccn2)c1 = NO
Cc1ccc(NC(=S)NNC(=O)c2nnn(-c3ccccc3)c2C)cc1 = NO

Prompt: What outcome does the record of this test show for `CCCCCCCCOC(=O)c1c(CSC(=N)N)n(C)c2cc(Br)c(OC(C)=O)cc12` ?
Completion: YES
